What pIC50 was measured for each of the following?
Molecular target: Menin-MLL (Homo sapiens)
Construct: His-Menin (M1-L615 end); purchased BIORTUS BP9210
Sequence (O00255 1-615 isoform O00255-1): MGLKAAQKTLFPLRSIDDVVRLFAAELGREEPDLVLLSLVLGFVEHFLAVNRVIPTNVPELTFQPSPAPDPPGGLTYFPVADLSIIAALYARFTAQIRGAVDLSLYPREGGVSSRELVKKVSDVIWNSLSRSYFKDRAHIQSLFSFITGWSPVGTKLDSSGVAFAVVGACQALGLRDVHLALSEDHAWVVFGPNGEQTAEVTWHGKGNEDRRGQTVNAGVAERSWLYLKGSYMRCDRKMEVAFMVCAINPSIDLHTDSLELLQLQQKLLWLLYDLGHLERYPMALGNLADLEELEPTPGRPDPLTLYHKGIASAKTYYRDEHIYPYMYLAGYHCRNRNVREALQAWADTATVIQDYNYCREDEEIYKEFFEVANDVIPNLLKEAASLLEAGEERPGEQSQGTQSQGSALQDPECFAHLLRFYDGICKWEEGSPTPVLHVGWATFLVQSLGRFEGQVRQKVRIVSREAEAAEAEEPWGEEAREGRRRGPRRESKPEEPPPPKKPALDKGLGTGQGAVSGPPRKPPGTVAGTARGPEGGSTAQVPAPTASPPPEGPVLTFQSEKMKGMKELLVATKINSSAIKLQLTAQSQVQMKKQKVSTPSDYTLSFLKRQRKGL
Assay: Inhibitory activity against Menin-MLL binding (fluorescence polarization)
Conditions: fluorescence polarization; 150 nM His-Menin, 15 nM FITC-MLL; 25°C for 60 min; read-out: Menin-MLL IC50
Scale explanation: pIC50 corresponds to minus log10 of a concentration expressed in moles per litre.

Menin-MLL (Homo sapiens) pIC50 of CCN(C(=O)c1cc(F)ccc1-c1cc(C2CN([C@H](CN3CCN(C(CO)CO)CC3)C(C)C)C2)cn2c(C)ncc12)C(C)C [Example 435] is 8.31

Tested on Menin-MLL (Homo sapiens), the item COC[C@H]1CN(CCC[C@@H](C(C)C)N2CC(c3cc(-c4ccc(F)cc4C(=O)N(C(C)C)C(C)C)c4cnc(C)n4c3)C2)CCN1 [Example 504-1] showed pIC50 equal to 7.77

pIC50 of Cc1nc(F)c2c(-c3ccc(F)cc3C(=O)N3CCOC[C@H]3C)cc(C3CN([C@@H](CO[C@@H]4CCCN(C)C4)C(C)C)C3)cn12 [Example 297-2] , assay on Menin-MLL (Homo sapiens), is 7.87

GET /values?item= CCN(C(=O)c1cc(F)ccc1-c1cc(C2(O)CN([C@@H](CCCN3CCN(CCO)CC3)C(C)C)C2)cn2c(C)ncc12)C(C)C [Example 464-2] &system= Menin-MLL (Homo sapiens) returns pIC50: 6.72

The compound C=C1CN[C@H](C(=O)N2CC(c3cc(-c4ccc(F)cc4C(=O)N(CC)C(C)C)c4c(F)nc(C)n4c3)C2)C1 [Example 130] , when measured on Menin-MLL (Homo sapiens), yielded pIC50 of 7.21

Form field, pIC50 with Menin-MLL (Homo sapiens), item CCN(C(=O)c1cc(F)ccc1-c1cc(C2CN([C@H](CCCN3CCN(CCOC)C(=O)C3)C(C)C)C2)cn2c(C)ncc12)C(C)C [Example 496] : 8.42
